# Tested on: MDA-MB-468 breast
# Assay Notes: NCI-60 one-dose screen, 48 h (100 = growth as untreated, 0 = no growth, -100 = all killed)
# Condition Label: 10 µM unless noted
About 83,000 compounds went through this panel and 20% of them were active in at least one assay; those are over-represented in the sample as a whole. Calls of active or inactive are those of the source. The calls were made as follows: active = growth percent below 10; inactive = the rest.
Measured Quantity: growth

Molecule: C=C(C)[C@@H]1CC[C@]2(C(=O)NC3CCCCC3)CC[C@]3(C)[C@H](CC[C@@H]4[C@@]5(C)CCC(=O)C(C)(C)[C@@H]5CC[C@]43C)[C@@H]12
growth: 83.5% (inactive)
--
Molecule: NC(=O)c1cccc(-c2cc(C(N)=O)ccc2Cl)c1
growth: 53.4% (inactive)
--
Molecule: CCOC(=O)c1c(CN2CCN(C)CC2)nc2ccc(Cl)cc2c1-c1ccccc1
growth: 63.7% (inactive)
--
Molecule: Cc1ccc(NC(=O)CCl)cc1Cl
growth: 108% (inactive)

Next, consider the following molecule.
Task: # input molecule: C1CN(CC2CCC(CN3CCOCC3)O2)CCO1 (stereo not given) ; wanted: its growth
Result: 102% (inactive)

###

# System: MDA-MB-468 breast
# Assay Notes: NCI-60 one-dose screen, 48 h (100 = growth as untreated, 0 = no growth, -100 = all killed)
# Condition Label: 10 µM unless noted
Compounds without any hit were thinned out: in the full panel of roughly 83,000, 20% have a hit.
// boundary case: growth equal to 80% maps to 0.0; strictly smaller maps to 1.0

Compound: COc1ccc(-c2nc(SCC(=O)c3ccc(Br)cc3)[nH]c(=O)c2C#N)cc1
Class: 0.0
--
Compound: CC[N+](C)(CC)CCCC(C)Nc1ccnc2cc(Cl)ccc12 (stereo unspecified)
Class: 0.0
--
Compound: CCOC(=O)n1cc(C2=C(c3ccc(OC)c(OC)c3)COC2=O)c2ccccc21
Class: 1.0
--
Compound: CN1CCN(CCC(=O)Nc2cccc(-n3cc(-c4ccncc4)c(-c4ccc(Cl)c(O)c4)n3)c2)CC1
Class: 1.0
--
Compound: N=C(N)c1ccc(-c2ccc(-c3ccc(Cl)cn3)s2)cc1
Class: 1.0
--
Compound: O=C(Cc1ccccc1)NNc1nc(Cl)nc(N2CCN(C(c3ccccc3)c3ccccc3)CC2)n1
Class: 1.0

Task: # strict comparison: is reported growth < 80%? input = "O=C(CSc1nccc(Nc2ccc(S(=O)(=O)Nc3nccs3)cc2)n1)c1ccc(F)cc1"
Result: 0.0

Task: For "COc1cc(/C=N/NC(=O)c2ccc(C)nc2)cc(OC)c1OC" , is the recorded growth below the cut-off of 80%?
Result: 0.0

Task: Identify whether the compound "COc1cccc(-c2nn(C(C)(C)C)cc2-c2ccnc(NCCCNS(=O)(=O)c3ccc(C)cc3)c2)c1" records growth below 80%.
Result: 0.0

Task: # strict comparison: is reported growth < 80%? input = "O=C(Nc1ccc(Oc2ccc(F)cc2)c(Cl)c1)c1cccnc1"
Result: 1.0

Task: Regarding "COc1ccc(C(=O)N2c3ccccc3Sc3ccccc32)c(C(F)(F)F)c1" , kindly confirm whether its growth is beneath 80%.
Result: 1.0

Task: Bench note: check whether "Cc1nc(N)sc1Sc1nc2ccc(Cl)cc2c(=O)n1-c1ccc(Oc2ccccc2)cc1" shows growth below 80%
Result: 1.0

Task: Is growth strictly under 80% for the entry "N/C(=N\OC(=O)CSc1nc2ccccc2s1)c1ccc(Cl)cc1" ?
Result: 0.0

Task: I wonder whether "CS(=O)(=O)c1nccc(-c2c(-c3cccc(OCc4ccc(F)cc4)c3)nc3sccn23)n1" has growth below 80%. Can you tell?
Result: 1.0

Task: Is it true that growth reported for COc1cc(C2CC(c3cccc(Br)c3)=NN2C(C)=O)cc(OC)c1OC (stereo unspecified) is less than 80%?
Result: 1.0

Task: Regarding "Cc1ccccc1OC(=O)c1cccc(Cl)c1" , kindly confirm whether its growth is beneath 80%.
Result: 0.0

Task: # strict comparison: is reported growth < 80%? input = CCC1(C(C)C)NC(=O)NC1=O (stereo unspecified)
Result: 0.0

Task: Hello, is growth of the following compound strictly smaller than 80%? Clc1ccc(C2CC(c3cccc(Nc4ccncc4)c3)=NN2c2cc(Cl)cc(Cl)c2)cc1 (stereo unspecified)
Result: 0.0

Task: is_below(growth, 80%) for "c1ccc(CN2COc3c(ccc4c3OCN(Cc3ccccc3)C4)C2)cc1" ?
Result: 1.0

Task: Just wondering, is growth of COc1ccc(C2C=C(c3ccc(Cl)c(Cl)c3)N=C3SC(C)=CN32)cc1 (stereo unspecified) below 80%?
Result: 0.0

###

# Tested on: MDA-MB-468 breast
# Assay Notes: NCI-60 one-dose screen, 48 h
# Condition Label: 10 µM unless noted
The panel holds about 83,000 compounds, 20% with a hit somewhere; the sample as a whole holds those more often. Active and inactive are the calls of the source. Rule for the calls: active = growth percent below 10; inactive = the rest.
Outcomes you can answer with include only these: active, inactive

Some entries whose results are on file:
Molecule: COc1cccc(-c2nc3sccn3c2-c2ccnc(NCCNC(=O)c3ccccc3)n2)c1
Class: inactive
//
Molecule: CCOC(=O)/C(F)=C/C1CC1C1CCCCC1 (stereo not given)
Class: inactive
//
Molecule: Cc1nn(-c2nc3ccccc3[nH]2)c2c1C(c1ccc(OCC(N)=O)cc1)CC(=O)N2 (stereo not given)
Class: inactive
//
Molecule: NC1[C@H](c2c[nH]c3ccccc23)c2c([nH]c3ccccc23)[C@H]1c1c[nH]c2ccccc12 (stereo not given in full)
Class: inactive
//
Molecule: COc1c(N2CC3CCCNC3C2)c(F)cc2c(=O)c(C(=O)N/N=C/c3ccc4c(c3)OCO4)cn(C3CC3)c12 (stereo not given)
Class: inactive
//
Molecule: O=C(CSc1nc2ccccc2[nH]1)NCc1ccccc1
Class: inactive

Task: Hi team, can someone confirm the assay call for "N#Cc1cccc(NC(=O)c2oc3ccccc3c2-c2cnn(-c3ccccc3)c2)c1" ?
Result: inactive

Task: Query: recorded result category for "Cc1ccc(Sc2ccccc2N)cc1" in this test
Result: inactive

Task: What call does the record list for "CC(=O)CC/C=C(\C)[C@H](O)[C@H](C)C(=O)O[C@H]1C[C@H](C)C=C2C=C[C@@]3(C)O[C@@H](O)CC(=O)[C@]3(C)[C@H]21" ?
Result: active

Task: What call does the record list for "N#Cc1c(-c2cccc(F)c2)cc(-c2ccc(Br)s2)[nH]c1=O" ?
Result: inactive

###

# System: MDA-MB-468 breast
# Assay Notes: NCI-60 one-dose screen, 48 h (100 = growth as untreated, 0 = no growth, -100 = all killed)
# Condition Label: 10 µM unless noted
# Protocol: Growth inhibition of the MDA-MB-468 human Breast tumor cell line is measured as a screen for anti-cancer activity. Cells are grown in 96 well plates and exposed to the test compound for 48 hours. Compounds are tested at a single concentration, which is 10^-5 M for most compounds. The reported endpoint is percent growth (GI% or GIPRCNT), where numbers from 0 - 100% represent growth inhibition, and numbers from -100% - 0 represent cell death. […]
About 83,000 compounds went through this panel and 20% of them were active in at least one assay; those are over-represented in the sample as a whole.
As shown below, each of these compounds has a reported growth value.
Write it as a number; the unit % goes unstated.

The following compounds have reported results that may help.
Compound Structure: COc1cc(NCCCCN=C(N)NC(N)=NC(C)C)c2ncccc2c1
growth [%]: -61.8

Compound Structure: O=c1scc(-c2ccc(C(F)(F)F)cc2)s1
growth [%]: 72.5

Task: What value of measured growth is listed for "C[C@]12CC[C@@H]3c4cc(OC(F)F)c(OS(N)(=O)=O)cc4CC[C@H]3[C@@H]1CC[C@@H]2O" ?
Result: -24.2

Task: Bench note: what growth did "Cn1cc(C(=O)c2nc(-c3cn(C)c4ccc(F)cc34)no2)c2cc(F)ccc21" show?
Result: 94.1

Task: Field request: growth | item: "Cn1cnc2nc[nH]c2c1=S"
Result: 107

Task: Fill blank: measured growth of the compound "O=c1[nH]c(N2CCOCC2)nc2scc(-c3ccccc3)c12" is ____.
Result: 86.2

###

# Tested on: MDA-MB-435 melanoma
# Assay Notes: NCI-60 one-dose screen, 48 h
# Condition Label: 10 µM
About 83,000 compounds went through this panel and 20% of them were active in at least one assay; those are over-represented in the sample as a whole. Activity calls are given as the source filed them. How the source made its calls: active means growth percent below 10; inactive means the rest.
Hi there, use one of these labels in your reply, thanks! 1 for active, -1 for inactive

Worked examples, 3 compounds total:
Compound: Fc1ccc(/C=C/c2nc3ccccc3n3c(-c4ccc(Cl)cc4)nnc23)cc1
Class: -1

Compound: COc1cc(C2CC(c3ccc(Oc4ccc(Cl)cc4)cc3)=NN2c2nc(-c3ccc(Cl)cc3)c(C#N)c(N3CCOCC3)n2)cc(OC)c1OC (centres undefined)
Class: -1

Compound: Cc1ccc2c(c1)C(=O)/C(=C/c1ccc([N+](=O)[O-])cc1)S2
Class: -1

Task: Please state the recorded outcome for this compound: "O=C(c1ccccc1)c1ccc2nc(-c3ccccc3Br)[nH]c2c1"
Result: 1

Task: Given O=C1NC2C=CC=CC2/C1=C1/SC(=S)N(C2CC(=O)N(c3ccc(Br)cc3)C2=O)C1=O (centres undefined) , state the outcome it received in this test.
Result: -1

Task: For "COc1cc(Nc2nc(O)c(/C=C3\C=Nc4ccccc43)s2)cc(OC)c1OC" , which call appears in the assay record?
Result: 1

Task: I would be grateful if you could indicate the recorded call for "COc1cc2oc(-c3cccc(C(=O)Nc4ccc(Cl)cc4)c3)cc(=O)c2c(OCCN)c1OC" .
Result: 1

Task: Record lookup: outcome of this test for "Cc1ccc(-c2nc(C#N)c(S(=O)(=O)N3CCN(S(C)(=O)=O)CC3)o2)cc1" ?
Result: -1
